Target System: human CD33 variant Y50Q (human, UniProt P20138 18-364)
Sequence (P20138 18-364 Y50Q limits assumed): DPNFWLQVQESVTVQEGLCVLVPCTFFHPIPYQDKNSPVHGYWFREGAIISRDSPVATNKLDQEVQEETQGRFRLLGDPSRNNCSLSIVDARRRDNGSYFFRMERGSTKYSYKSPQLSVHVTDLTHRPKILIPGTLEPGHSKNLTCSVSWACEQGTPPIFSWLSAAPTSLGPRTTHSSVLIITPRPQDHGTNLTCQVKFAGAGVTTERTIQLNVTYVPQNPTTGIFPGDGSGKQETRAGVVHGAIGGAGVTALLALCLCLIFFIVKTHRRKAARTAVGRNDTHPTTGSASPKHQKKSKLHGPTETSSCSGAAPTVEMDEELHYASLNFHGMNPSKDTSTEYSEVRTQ
Assay Explanation: flow cytometry, IgG on cells expressing the mutant
Measurement Name: Mean % WT Binding

Prompt: Please give the measured Mean % WT Binding for this binder: Refmab #1 (antibody, human IgG1, V domains shown, Tested in IgG format; human IgG1 (Absolute Antibody hP67.6, Cat. No. Ab00283-10.0); also called hP67.6) VH: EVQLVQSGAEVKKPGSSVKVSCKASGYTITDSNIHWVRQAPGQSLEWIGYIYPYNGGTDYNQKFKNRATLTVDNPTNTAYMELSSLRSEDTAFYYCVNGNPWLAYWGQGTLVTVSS VL: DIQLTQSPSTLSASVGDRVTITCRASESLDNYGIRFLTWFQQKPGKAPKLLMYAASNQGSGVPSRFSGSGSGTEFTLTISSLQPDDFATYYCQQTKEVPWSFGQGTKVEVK
Completion: 93.9 % of WT
